EXPERIMENTAL_TARGET: Triosephosphate isomerase, glycosomal (Trypanosoma cruzi) (UniProt P52270)
Sequence (P52270 whole entry): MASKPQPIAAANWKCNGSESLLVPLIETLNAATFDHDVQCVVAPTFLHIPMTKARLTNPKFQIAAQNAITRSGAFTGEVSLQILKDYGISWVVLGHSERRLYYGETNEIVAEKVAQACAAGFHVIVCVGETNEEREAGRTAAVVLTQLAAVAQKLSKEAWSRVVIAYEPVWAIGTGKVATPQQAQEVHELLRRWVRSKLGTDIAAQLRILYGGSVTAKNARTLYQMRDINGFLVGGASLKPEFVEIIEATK
RUN_DESCRIPTION: Inhibition of recombinant Trypanosoma cruzi triosephosphate isomerase assessed as reduction of DHAP at 200 uM after 2 hrs by measuring NADH consumption by alpha-glycerolphosphate dehydrogenase coupled assay

- SMILES: "COC(=O)c1ccc2nc(SCC(=O)Nc3ncc([N+](=O)[O-])s3)[nH]c2c1"
  EXPERIMENTAL_TARGET: "Triosephosphate isomerase, glycosomal (Trypanosoma cruzi) (UniProt P52270)"
  inhibition / %: 52
- SMILES: "COC(=O)c1cc2nc(SCC(=O)Nc3ncccn3)[nH]c2cc1Cl"
  EXPERIMENTAL_TARGET: "Triosephosphate isomerase, glycosomal (Trypanosoma cruzi) (UniProt P52270)"
  inhibition / %: 0
- SMILES: "COC(=O)c1cc2nc(SCC(=O)Nc3ccncc3)[nH]c2cc1Cl"
  EXPERIMENTAL_TARGET: "Triosephosphate isomerase, glycosomal (Trypanosoma cruzi) (UniProt P52270)"
  inhibition / %: 33
- SMILES: "COC(=O)c1cc2nc(SCC(=O)Nc3nccs3)[nH]c2cc1Cl"
  EXPERIMENTAL_TARGET: "Triosephosphate isomerase, glycosomal (Trypanosoma cruzi) (UniProt P52270)"
  inhibition / %: 59
- SMILES: "COC(=O)c1cc2nc(SCC(=O)Nc3ncc([N+](=O)[O-])s3)[nH]c2cc1Cl"
  EXPERIMENTAL_TARGET: "Triosephosphate isomerase, glycosomal (Trypanosoma cruzi) (UniProt P52270)"
  inhibition / %: 69
- SMILES: "COC(=O)c1cc2nc(SCC(=O)Nc3ccccc3)[nH]c2cc1Cl"
  EXPERIMENTAL_TARGET: "Triosephosphate isomerase, glycosomal (Trypanosoma cruzi) (UniProt P52270)"
  inhibition / %: 33
- SMILES: "COC(=O)c1cc2nc(SCC(=O)Nc3ccccn3)[nH]c2cc1Cl"
  EXPERIMENTAL_TARGET: "Triosephosphate isomerase, glycosomal (Trypanosoma cruzi) (UniProt P52270)"
  inhibition / %: 10
- SMILES: "COC(=O)c1cc2nc(SCC(=O)Nc3cnccn3)[nH]c2cc1Cl"
  EXPERIMENTAL_TARGET: "Triosephosphate isomerase, glycosomal (Trypanosoma cruzi) (UniProt P52270)"
  inhibition / %: 68
- SMILES: "O=C(CSc1nc2cc(Oc3cccc4ccccc34)c(Cl)cc2[nH]1)Nc1ncc([N+](=O)[O-])s1"
  EXPERIMENTAL_TARGET: "Triosephosphate isomerase, glycosomal (Trypanosoma cruzi) (UniProt P52270)"
  inhibition / %: 48
